Data credit: patent US6191256A

- system_name: rFVIII (Homo sapiens, UniProt P00451)
- Sequence (P00451 20-2351): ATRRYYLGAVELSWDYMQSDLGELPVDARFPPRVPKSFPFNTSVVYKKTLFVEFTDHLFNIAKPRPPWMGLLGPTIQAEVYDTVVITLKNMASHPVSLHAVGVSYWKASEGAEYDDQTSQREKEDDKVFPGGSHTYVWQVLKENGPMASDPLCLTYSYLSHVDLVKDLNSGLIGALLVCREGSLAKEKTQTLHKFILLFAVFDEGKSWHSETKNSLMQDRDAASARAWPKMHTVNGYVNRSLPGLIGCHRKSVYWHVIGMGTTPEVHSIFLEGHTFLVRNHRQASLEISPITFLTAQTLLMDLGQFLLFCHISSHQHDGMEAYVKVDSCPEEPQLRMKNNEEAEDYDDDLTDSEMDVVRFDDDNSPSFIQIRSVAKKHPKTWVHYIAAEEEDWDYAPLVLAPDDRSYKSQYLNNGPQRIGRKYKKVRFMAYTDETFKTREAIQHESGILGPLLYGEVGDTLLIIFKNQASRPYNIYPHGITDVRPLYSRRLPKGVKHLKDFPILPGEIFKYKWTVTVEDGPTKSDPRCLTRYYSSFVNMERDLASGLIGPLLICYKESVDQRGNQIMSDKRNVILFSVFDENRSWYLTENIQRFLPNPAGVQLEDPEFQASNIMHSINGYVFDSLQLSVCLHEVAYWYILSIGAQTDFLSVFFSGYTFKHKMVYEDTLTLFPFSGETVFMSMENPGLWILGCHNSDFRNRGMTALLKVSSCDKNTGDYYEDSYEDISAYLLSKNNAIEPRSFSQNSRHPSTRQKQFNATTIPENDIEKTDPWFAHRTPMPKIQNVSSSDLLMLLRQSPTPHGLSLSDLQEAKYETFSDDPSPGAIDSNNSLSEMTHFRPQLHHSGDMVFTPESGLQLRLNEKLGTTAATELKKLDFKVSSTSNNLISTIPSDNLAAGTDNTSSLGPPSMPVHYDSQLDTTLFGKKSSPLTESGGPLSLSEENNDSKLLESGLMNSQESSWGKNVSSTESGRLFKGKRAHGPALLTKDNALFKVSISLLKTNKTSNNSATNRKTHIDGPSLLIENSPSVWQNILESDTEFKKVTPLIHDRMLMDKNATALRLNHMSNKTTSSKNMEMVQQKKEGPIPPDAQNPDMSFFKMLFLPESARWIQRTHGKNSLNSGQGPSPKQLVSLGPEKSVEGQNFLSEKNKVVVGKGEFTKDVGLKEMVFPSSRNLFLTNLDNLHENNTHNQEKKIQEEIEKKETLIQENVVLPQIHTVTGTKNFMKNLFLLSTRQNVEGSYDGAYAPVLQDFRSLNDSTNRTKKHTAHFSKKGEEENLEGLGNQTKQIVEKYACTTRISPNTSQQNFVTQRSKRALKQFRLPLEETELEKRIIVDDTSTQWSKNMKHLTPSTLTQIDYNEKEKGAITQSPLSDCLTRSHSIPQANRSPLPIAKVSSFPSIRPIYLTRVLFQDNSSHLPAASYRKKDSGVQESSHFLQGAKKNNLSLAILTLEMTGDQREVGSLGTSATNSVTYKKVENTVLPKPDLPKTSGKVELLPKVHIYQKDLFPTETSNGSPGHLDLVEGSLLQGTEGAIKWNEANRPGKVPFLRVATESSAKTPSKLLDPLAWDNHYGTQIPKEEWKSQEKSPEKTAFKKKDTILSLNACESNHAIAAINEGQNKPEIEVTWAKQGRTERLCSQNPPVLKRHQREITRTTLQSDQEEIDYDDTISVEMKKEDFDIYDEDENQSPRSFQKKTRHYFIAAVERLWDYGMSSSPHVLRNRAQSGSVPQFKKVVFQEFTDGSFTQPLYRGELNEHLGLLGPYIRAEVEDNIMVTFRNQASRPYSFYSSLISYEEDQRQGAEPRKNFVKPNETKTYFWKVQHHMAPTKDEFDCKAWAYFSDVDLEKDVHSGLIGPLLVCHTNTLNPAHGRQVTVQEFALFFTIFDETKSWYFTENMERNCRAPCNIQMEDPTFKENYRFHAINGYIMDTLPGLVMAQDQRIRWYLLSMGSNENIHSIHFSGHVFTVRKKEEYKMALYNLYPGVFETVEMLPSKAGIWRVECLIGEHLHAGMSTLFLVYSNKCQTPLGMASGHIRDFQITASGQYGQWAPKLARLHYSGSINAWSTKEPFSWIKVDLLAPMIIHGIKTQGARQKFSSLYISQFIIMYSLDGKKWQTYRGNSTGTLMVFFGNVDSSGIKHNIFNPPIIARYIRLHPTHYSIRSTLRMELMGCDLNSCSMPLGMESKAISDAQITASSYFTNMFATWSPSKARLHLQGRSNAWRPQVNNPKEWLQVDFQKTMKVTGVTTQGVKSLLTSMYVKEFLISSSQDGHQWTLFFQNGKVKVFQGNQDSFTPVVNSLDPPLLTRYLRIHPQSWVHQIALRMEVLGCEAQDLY
- Sequence (P00451 1668-2351 limits assumed): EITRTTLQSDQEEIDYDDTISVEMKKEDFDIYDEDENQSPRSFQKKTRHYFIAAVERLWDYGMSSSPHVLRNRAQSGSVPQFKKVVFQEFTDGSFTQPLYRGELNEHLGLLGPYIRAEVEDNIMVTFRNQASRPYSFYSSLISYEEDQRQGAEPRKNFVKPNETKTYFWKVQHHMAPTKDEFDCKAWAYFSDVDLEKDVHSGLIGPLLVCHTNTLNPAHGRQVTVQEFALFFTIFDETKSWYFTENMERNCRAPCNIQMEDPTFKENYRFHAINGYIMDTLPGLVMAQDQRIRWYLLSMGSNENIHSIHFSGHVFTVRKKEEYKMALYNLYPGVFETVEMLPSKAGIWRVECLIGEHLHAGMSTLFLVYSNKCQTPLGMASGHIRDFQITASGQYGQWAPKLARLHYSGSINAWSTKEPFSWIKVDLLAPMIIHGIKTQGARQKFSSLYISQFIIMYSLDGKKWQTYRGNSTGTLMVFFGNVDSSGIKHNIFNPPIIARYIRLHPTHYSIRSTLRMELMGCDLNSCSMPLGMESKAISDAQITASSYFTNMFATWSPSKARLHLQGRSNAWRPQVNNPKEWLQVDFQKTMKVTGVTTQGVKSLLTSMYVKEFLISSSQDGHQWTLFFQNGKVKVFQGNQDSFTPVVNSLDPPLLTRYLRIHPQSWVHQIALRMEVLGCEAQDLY
- method: column format binding assay, rFVIII mass per fraction by sandwich capture ELISA for the light chain
- experimental_conditions: Table 6
Known 0.5M CaCl2 % total of a selection of substances
Express the result in % but write the number alone.

14 (EPRVIG) [compound 14]; 32

What value of 0.5M CaCl2 % total has been recorded for this entry: 12 (QRLIQF) [compound 12]
96

What value of 0.5M CaCl2 % total has been recorded for this entry: 11 (NAIFQW) [compound 11]
78

What value of 0.5M CaCl2 % total has been recorded for this entry: 13 (KAQETW) [compound 13]
90

What value of 0.5M CaCl2 % total has been recorded for this entry: 22 (FVFLVR) [compound 22]
0

What value of 0.5M CaCl2 % total has been recorded for this entry: 21 (HFQIFG) [compound 21]
22

What value of 0.5M CaCl2 % total has been recorded for this entry: 9 (FALPGR) [compound 9]
97

What value of 0.5M CaCl2 % total has been recorded for this entry: 15 (VYGVGG) [compound 15]
55

###

- system_name: rFVIII (Homo sapiens, UniProt P00451)
- method: rFVIII activity recovery from peptide columns by chromogenic substrate assay (COATEST)
- Format: biochemical
- experimental_conditions: Table 7
endpoint_name: Total IU

Before answering, review these 4 worked examples.
6 (HYWFYK) [compound 6]; 68.7 IU
7 (IRFYSE) [compound 7]; 42.5 IU
5 (LNWKYG) [compound 5]; 37.8 IU
1 (KPNPLA) [compound 1]; 36.5 IU

Please examine the following record next.
What value of Total IU has been recorded for this entry: 2 (RNPPNN) [compound 2]
54.3 IU

###

- system_name: rFVIII (Homo sapiens, UniProt P00451)
- method: rFVIII activity recovery from peptide columns by chromogenic substrate assay (COATEST)
- Assay type: biochemical
- experimental_conditions: Table 8
endpoint_name: Total IU (IU)
Express the result in IU but write the number alone.

Before answering, review these 2 worked examples.
20 (WHHHRG) [compound 20]; 7.8
19 (FHFGLQ) [compound 19]; 19.5

Please provide the recorded Total IU for 10 (AFVRSL) [compound 10] , tested on rFVIII (Homo sapiens, UniProt P00451).
54.3

Please provide the recorded Total IU for 21 (HFQIFG) [compound 21] , tested on rFVIII (Homo sapiens, UniProt P00451).
21.2

Please provide the recorded Total IU for 22 (FVFLVR) [compound 22] , tested on rFVIII (Homo sapiens, UniProt P00451).
2.3

Please provide the recorded Total IU for 15 (VYGVGG) [compound 15] , tested on rFVIII (Homo sapiens, UniProt P00451).
45.4

Please provide the recorded Total IU for 11 (NAIFQW) [compound 11] , tested on rFVIII (Homo sapiens, UniProt P00451).
60.4

Please provide the recorded Total IU for 12 (QRLIQF) [compound 12] , tested on rFVIII (Homo sapiens, UniProt P00451).
46.6

Please provide the recorded Total IU for 14 (EPRVIG) [compound 14] , tested on rFVIII (Homo sapiens, UniProt P00451).
58.6

Please provide the recorded Total IU for 13 (KAQETW) [compound 13] , tested on rFVIII (Homo sapiens, UniProt P00451).
50.3

Please provide the recorded Total IU for 9 (FALPGR) [compound 9] , tested on rFVIII (Homo sapiens, UniProt P00451).
70.2

###

- system_name: rFVIII (Homo sapiens, UniProt P00451)
- method: column format binding assay, rFVIII mass per fraction by sandwich capture ELISA for the light chain
- experimental_conditions: Table 6
Given measured 2% acetic acid ng, output class 1 if it is greater than or equal to 200 ng and class 0 if not.

Sample answers from the record:
11 (NAIFQW) [compound 11]; class 1
15 (VYGVGG) [compound 15]; class 0
22 (FVFLVR) [compound 22]; class 1
20 (WHHHRG) [compound 20]; class 1
12 (QRLIQF) [compound 12]; class 0
9 (FALPGR) [compound 9]; class 0
19 (FHFGLQ) [compound 19]; class 1
13 (KAQETW) [compound 13]; class 0
10 (AFVRSL) [compound 10]; class 0
21 (HFQIFG) [compound 21]; class 1

Next:
API: above_or_equal(metric=2% acetic acid ng, cutoff=200 ng) for item 14 (EPRVIG) [compound 14]
class 0

###

- system_name: rFVIII (Homo sapiens)
- method: rFVIII activity recovery from peptide columns by chromogenic substrate assay (COATEST)
- Type: biochemical
- experimental_conditions: Table 8; activity recovery
Given measured 0.5M CaCl2 % total, output True if it is greater than or equal to 90% and False if not.

22 (FVFLVR) [compound 22]; False

API: above_or_equal(metric=0.5M CaCl2 % total, cutoff=90%) for item 10 (AFVRSL) [compound 10]
True

API: above_or_equal(metric=0.5M CaCl2 % total, cutoff=90%) for item 14 (EPRVIG) [compound 14]
False

###

- system_name: rFVIII (Homo sapiens)
- method: rFVIII activity recovery from peptide columns by chromogenic substrate assay (COATEST)
- Type: biochemical
- experimental_conditions: Table 8
Decision: 2% acetic acid IU beneath 0.09 IU gives Condition met; 2% acetic acid IU meeting or exceeding 0.09 IU gives Condition not met.

14 (EPRVIG) [compound 14]; Condition met

Given the entry 20 (WHHHRG) [compound 20] , would its reported 2% acetic acid IU be below 0.09 IU?
Condition not met

Given the entry 15 (VYGVGG) [compound 15] , would its reported 2% acetic acid IU be below 0.09 IU?
Condition met

Given the entry 12 (QRLIQF) [compound 12] , would its reported 2% acetic acid IU be below 0.09 IU?
Condition met

Given the entry 21 (HFQIFG) [compound 21] , would its reported 2% acetic acid IU be below 0.09 IU?
Condition not met

Given the entry 9 (FALPGR) [compound 9] , would its reported 2% acetic acid IU be below 0.09 IU?
Condition not met

Given the entry 19 (FHFGLQ) [compound 19] , would its reported 2% acetic acid IU be below 0.09 IU?
Condition not met

Given the entry 10 (AFVRSL) [compound 10] , would its reported 2% acetic acid IU be below 0.09 IU?
Condition not met

Given the entry 22 (FVFLVR) [compound 22] , would its reported 2% acetic acid IU be below 0.09 IU?
Condition not met

Given the entry 11 (NAIFQW) [compound 11] , would its reported 2% acetic acid IU be below 0.09 IU?
Condition met

###

- system_name: rFVIII (Homo sapiens, UniProt P00451)
- method: confirmatory binding assay in filtration plate format using 14C-rFVIII
- experimental_conditions: Table 3; remaining on beads after washes; 14C-rFVIII 20 nM
endpoint_name: beads % total
Note: a bare number is incomplete; add the unit.

Before answering, review these 9 worked examples.
3 (YVQGLW) [compound 3]; 7%
2 (RNPPNN) [compound 2]; 3%
5 (LNWKYG) [compound 5]; 3%
17 (FYRFWN) [compound 17]; 12%
18 (WLWSHN) [compound 18]; 8%
7 (IRFYSE) [compound 7]; 4%
4 (FRPHWA) [compound 4]; 6%
1 (KPNPLA) [compound 1]; 3%
6 (HYWFYK) [compound 6]; 5%

What value of beads % total has been recorded for this entry: 16 (WRRHRY) [compound 16]
34%

###

- system_name: rFVIII (Homo sapiens, UniProt P00451)
- method: column format binding assay, rFVIII mass per fraction by sandwich capture ELISA for the light chain
- experimental_conditions: Table 5
endpoint_name: 0.5M CaCl2 % total (%)
Express the result in % but write the number alone.

18 (WLWSHN) [compound 18]; 56
16 (WRRHRY) [compound 16]; 9
6 (HYWFYK) [compound 6]; 90
2 (RNPPNN) [compound 2]; 92
4 (FRPHWA) [compound 4]; 90

What value of 0.5M CaCl2 % total has been recorded for this entry: 7 (IRFYSE) [compound 7]
94

What value of 0.5M CaCl2 % total has been recorded for this entry: 1 (KPNPLA) [compound 1]
88

What value of 0.5M CaCl2 % total has been recorded for this entry: 5 (LNWKYG) [compound 5]
97

What value of 0.5M CaCl2 % total has been recorded for this entry: 17 (FYRFWN) [compound 17]
37

###

- system_name: rFVIII (Homo sapiens, UniProt P00451)
- method: confirmatory binding assay in filtration plate format using 14C-rFVIII
- experimental_conditions: Table 3; 14C-rFVIII 20 nM in PPF, 5 mg beads
endpoint_name: 2% acetic acid % total (%)
Express the result in % but write the number alone.

Before answering, review these 8 worked examples.
6 (HYWFYK) [compound 6]; 12
4 (FRPHWA) [compound 4]; 17
5 (LNWKYG) [compound 5]; 10
18 (WLWSHN) [compound 18]; 67
2 (RNPPNN) [compound 2]; 12
17 (FYRFWN) [compound 17]; 72
3 (YVQGLW) [compound 3]; 19
16 (WRRHRY) [compound 16]; 45

What value of 2% acetic acid % total has been recorded for this entry: 1 (KPNPLA) [compound 1]
12

What value of 2% acetic acid % total has been recorded for this entry: 7 (IRFYSE) [compound 7]
11
